molecular target: SYK kinase (Homo sapiens); assay: SYK kinase assay (HTRF KinEASE-TK); format: biochemical; conditions: given as number, read-out: Syk inhibition IC50
pIC50: −log10 of the molar value.
Parameter measured: pIC50

Any idea what pIC50 was measured for c1cc(N2CCOCC2)ccc1Nc1nc(-c2ccc3cn[nH]c3c2)cn2cnnc12 ?
< 5.00

---

test: In vivo pharmacokinetic analysis, single dose, ICR mice; conditions: mouse, male, plasma, IV Administration (2 mg/kg), single dose
Think of 2000 ng·h/mL as a floor: if AUC(0-t) stands on it or above, it is True; beneath it, False.

[[record]]
compound = "COc1cc(Nc2nc(-c3ccc4cn[nH]c4c3)cn3ncnc23)ccc1N1CCN(C2COC2)CC1 [I54]"
discrete_label = "False"

[[record]]
compound = "c1nc2c(Nc3ccc(N4CCOCC4)cc3)nc(-c3ccc4cc[nH]c4c3)cn2n1 [I10]"
discrete_label = "True"

[[record]]
compound = "c1nc2c(Nc3ccc(N4CCN(C5COC5)CC4)cc3)nc(-c3ccc4cn[nH]c4c3)cn2n1 [I53]"
discrete_label = "True"

[[record]]
compound = "COc1cc(Nc2nc(-c3ccc4cc[nH]c4c3)cn3ncnc23)ccc1N1CCN(C2COC2)CC1 [I58]"
discrete_label = "False"

[[record]]
compound = "COc1cc(Nc2nc(-c3ccc4cc[nH]c4c3)cn3ncnc23)ccc1N1CCOCC1 [I2]"
discrete_label = "False"

[[record]]
compound = "COc1cc(Nc2nc(-c3ccc4cn[nH]c4c3)cn3ncnc23)ccc1N1CCC(C)(O)CC1 [I22]"
discrete_label = "False"


// inclusive: AUC(0-t) at least 2000 ng·h/mL? input: COc1cc(Nc2nc(-c3ccc4cn[nH]c4c3)cn3ncnc23)ccc1N1CCOCC1 [I1]
False

// inclusive: AUC(0-t) at least 2000 ng·h/mL? input: c1nc2c(Nc3ccc(N4CCN(C5COC5)CC4)cc3)nc(-c3ccc4cc[nH]c4c3)cn2n1 [I57]
True

---

assay: In vivo pharmacokinetic analysis, single dose, ICR mice; conditions: mouse, male, plasma, IV Administration (2 mg/kg), single dose
Parameter measured: Cmax (ng/mL)
The response must be a number in ng/mL with no trailing unit.

Below are worked cases with known answers.
[[record]]
record_smiles = "COc1cc(Nc2nc(-c3ccc4cn[nH]c4c3)cn3ncnc23)ccc1N1CCC(C)(O)CC1"
parameter_measured = "Cmax"
value_units = "ng/mL"
measured = 1320

[[record]]
record_smiles = "c1nc2c(Nc3ccc(N4CCN(C5COC5)CC4)cc3)nc(-c3ccc4cc[nH]c4c3)cn2n1"
parameter_measured = "Cmax"
value_units = "ng/mL"
measured = 7360

[[record]]
record_smiles = "COc1cc(Nc2nc(-c3ccc4cn[nH]c4c3)cn3ncnc23)ccc1N1CCN(C2COC2)CC1"
parameter_measured = "Cmax"
value_units = "ng/mL"
measured = 1640


Any idea what Cmax was measured for COc1cc(Nc2nc(-c3ccc4cn[nH]c4c3)cn3ncnc23)ccc1N1CCOCC1 ?
2520

Any idea what Cmax was measured for COc1cc(Nc2nc(-c3ccc4cc[nH]c4c3)cn3ncnc23)ccc1N1CCN(C2COC2)CC1 ?
5110

Any idea what Cmax was measured for c1nc2c(Nc3ccc(N4CCOCC4)cc3)nc(-c3ccc4cc[nH]c4c3)cn2n1 ?
8810

Any idea what Cmax was measured for COc1cc(Nc2nc(-c3ccc4cc[nH]c4c3)cn3ncnc23)ccc1N1CCOCC1 ?
1870

Any idea what Cmax was measured for c1nc2c(Nc3ccc(N4CCN(C5COC5)CC4)cc3)nc(-c3ccc4cn[nH]c4c3)cn2n1 ?
3960

---

biological target: SYK kinase (Homo sapiens, UniProt P43405); test: SYK kinase assay (HTRF KinEASE-TK); assay type: biochemical; settings: class symbols, read-out: Syk inhibition IC50
# IC50 listing for each entry below

Below are worked cases with known answers.
[[record]]
record_smiles = "COc1cc(Nc2nc(-c3ccc4cn[nH]c4c3)cn3ncnc23)ccc1N1CCN(C)CC1"
measured_target = "SYK kinase (Homo sapiens, UniProt P43405)"
parameter_measured = "IC50"
measured = "≤ 50 nM"

[[record]]
record_smiles = "COc1cc(Nc2nc(-c3ccc4c(C)c[nH]c4c3)cn3cnnc23)ccc1N1CCOCC1"
measured_target = "SYK kinase (Homo sapiens, UniProt P43405)"
parameter_measured = "IC50"
measured = "500 to 5000 nM"


Any idea what IC50 was measured for COc1cc(Nc2nc(-c3ccc4cn[nH]c4c3)cn3ncnc23)ccc1N1CCOCC1 ?
≤ 50 nM

---

# half-life listing for each entry below
assay: In vivo pharmacokinetic analysis, single dose, ICR mice; conditions: mouse, male, plasma, IV Administration (2 mg/kg), single dose
The response must be a number in min with no trailing unit.

Below are worked cases with known answers.
[[record]]
record_smiles = "c1nc2c(Nc3ccc(N4CCOCC4)cc3)nc(-c3ccc4cc[nH]c4c3)cn2n1"
parameter_measured = "half-life"
measured = 99

[[record]]
record_smiles = "COc1cc(Nc2nc(-c3ccc4cc[nH]c4c3)cn3ncnc23)ccc1N1CCN(C2COC2)CC1"
parameter_measured = "half-life"
measured = 42.6


Any idea what half-life was measured for COc1cc(Nc2nc(-c3ccc4cn[nH]c4c3)cn3ncnc23)ccc1N1CCC(C)(O)CC1 ?
12.6

Any idea what half-life was measured for COc1cc(Nc2nc(-c3ccc4cc[nH]c4c3)cn3ncnc23)ccc1N1CCOCC1 ?
34.2

Any idea what half-life was measured for c1nc2c(Nc3ccc(N4CCN(C5COC5)CC4)cc3)nc(-c3ccc4cc[nH]c4c3)cn2n1 ?
43.2

---

molecular target: UniProtKB P43405; assay: SYK kinase assay (HTRF KinEASE-TK); format: biochemical; conditions: class symbols, read-out: Syk inhibition IC50
# IC50 listing for each entry below

Any idea what IC50 was measured for CCOc1cc(Nc2nc(-c3ccc4cn[nH]c4c3)cn3ncnc23)ccc1N1CCOCC1 ?
≤ 50 nM

Any idea what IC50 was measured for COc1ccc(Nc2nc(-c3ccc4cn[nH]c4c3)cn3ncnc23)cc1OC ?
≤ 50 nM

Any idea what IC50 was measured for c1nc2c(Nc3ccc(N4CC5(COC5)C4)cc3)nc(-c3ccc4cc[nH]c4c3)cn2n1 ?
≤ 50 nM

---

assay: In vivo pharmacokinetic analysis, single dose, ICR mice; conditions: mouse, male, plasma, IV Administration (2 mg/kg), single dose
# AUC(0-inf) listing for each entry below
The response must be a number in ng·h/mL with no trailing unit.

Any idea what AUC(0-inf) was measured for COc1cc(Nc2nc(-c3ccc4cn[nH]c4c3)cn3ncnc23)ccc1N1CCOCC1 ?
983

Any idea what AUC(0-inf) was measured for c1nc2c(Nc3ccc(N4CCN(C5COC5)CC4)cc3)nc(-c3ccc4cc[nH]c4c3)cn2n1 ?
4670

Any idea what AUC(0-inf) was measured for COc1cc(Nc2nc(-c3ccc4cn[nH]c4c3)cn3ncnc23)ccc1N1CCN(C2COC2)CC1 ?
500

Any idea what AUC(0-inf) was measured for COc1cc(Nc2nc(-c3ccc4cn[nH]c4c3)cn3ncnc23)ccc1N1CCC(C)(O)CC1 ?
429

Any idea what AUC(0-inf) was measured for c1nc2c(Nc3ccc(N4CCN(C5COC5)CC4)cc3)nc(-c3ccc4cn[nH]c4c3)cn2n1 ?
2300

---

# AUC(0-t) listing for each entry below
experiment: In vivo pharmacokinetic analysis, single dose, ICR mice; details: mouse, male, plasma, PO Administration (10 mg/kg), single dose
The response must be a number in ng·h/mL with no trailing unit.

[[record]]
compound = "COc1cc(Nc2nc(-c3ccc4cn[nH]c4c3)cn3ncnc23)ccc1N1CCN(C2COC2)CC1 [I54]"
measured = 145

[[record]]
compound = "COc1cc(Nc2nc(-c3ccc4cc[nH]c4c3)cn3ncnc23)ccc1N1CCOCC1 [I2]"
measured = 1960

[[record]]
compound = "c1nc2c(Nc3ccc(N4CCN(C5COC5)CC4)cc3)nc(-c3ccc4cc[nH]c4c3)cn2n1 [I57]"
measured = 14500


In the following, a different compound is considered.
Any idea what AUC(0-t) was measured for COc1cc(Nc2nc(-c3ccc4cn[nH]c4c3)cn3ncnc23)ccc1N1CCC(C)(O)CC1 [I22] ?
115

---

Biological target: Ba/F3-TEL-SYK cells (Homo sapiens)
Construct: fused on or other part: N-terminal part of TEL (ETV6) with its oligomerising PNT/SAM domain, fused before the SYK part that carries the kinase domain; P41212 (Transcription factor ETV6)
Assay: Ba/F3-TEL-SYK cell-based assay (CellTiter-Glo proliferation)
Conditions: 72 hr, read-out: BaF3 Cell assay IC50
Description: CellTiter-Glo® Luminescent Cell Viability Assay was used to determine the number of viable cells in culture based on quantitation of the ATP present, as an indicator of metabolically active cells. […] Finally, luminescence values were obtained using an Envision 2104 plate reader (PerkinElmer) and calculated the average data and Standard Deviation (SD) of DMSO and Reference (GS-9973, 1 μM) as high control and low control. […]
Parameter measured: GI50

Below are worked cases with known answers.
[[record]]
record_smiles = "CC(C)N1C[C@@H]2C[C@@H]1CN2c1ccc(Nc2nc(-c3ccc4[nH]ncc4c3)cn3ncnc23)cc1"
parameter_measured = "GI50"
measured = "500 to 5000 nM"

[[record]]
record_smiles = "COc1cc(Nc2nc(-c3ccc4c(c3)N=CC4)cn3ncnc23)ccc1N1CC2(COC2)C1"
parameter_measured = "GI50"
measured = "50 to 500 nM"

[[record]]
record_smiles = "O=S1(=O)CCN(c2ccc(Nc3nc(-c4ccc5cn[nH]c5c4)cn4ncnc34)cc2)CC1"
parameter_measured = "GI50"
measured = "50 to 500 nM"


In the following, a different molecule is considered.
Any idea what GI50 was measured for COCCN1CCN(c2ccc(Nc3nc(-c4ccc5cn[nH]c5c4)cn4ncnc34)cc2OC)CC1 ?
≤ 50 nM
